Data provenance is patent US5798361A.

Property: R (Catalepsy/Climbing); scope: individual compounds
# test-description: Catalepsy by oral route in Sprague-Dawley rats
# Type: in vivo
# measurement-conditions: ratio of ED50 values, Catalepsy/Climbing
readout-kind: R (Catalepsy/Climbing)

| compound | readout-kind | value |
| --- | --- | --- |
| Cc1nc2scc(-c3ccc(Cl)cc3)n2c(=O)c1CCN1CCC(c2noc3cc(F)ccc23)CC1 [Example 19] | R (Catalepsy/Climbing) | 2.7 |
| COc1ccc(-c2csc3nc(C)c(CCN4CCC(c5noc6cc(F)ccc56)CC4)c(=O)n23)cc1 [Example 16] | R (Catalepsy/Climbing) | 4.1 |
| Cc1nc2scc(-c3ccccc3)n2c(=O)c1CCN1CCC(c2noc3cc(F)ccc23)CC1 [Example 15] | R (Catalepsy/Climbing) | 1.1 |
| Cc1ccc(-c2csc3nc(C)c(CCN4CCC(c5noc6cc(F)ccc56)CC4)c(=O)n23)cc1 [Example 17] | R (Catalepsy/Climbing) | 5.8 |

====

# test-description: Catalepsy by oral route in Sprague-Dawley rats
# Type: in vivo
# measurement-conditions: rat, in vivo; oral, Sprague-Dawley rats, 50% of treated animals showed catalepsy
readout-kind: log10 of ED50 (log10 of the value in mg/kg)

| molecule | readout-kind | value |
| --- | --- | --- |
| COc1ccc(-c2csc3nc(C)c(CCN4CCC(c5noc6cc(F)ccc56)CC4)c(=O)n23)cc1 | log10 of ED50 | 1.48 |
| O=C(CCCN1CCC(O)(c2ccc(Cl)cc2)CC1)c1ccc(F)cc1 [Haloperidol, reference compound] | log10 of ED50 | 0.29 |
| Cc1nc2scc(-c3ccc(F)cc3)n2c(=O)c1CCN1CCC(c2noc3cc(F)ccc23)CC1 | log10 of ED50 | 0.97 |
| Cc1nc2scc(-c3ccccc3)n2c(=O)c1CCN1CCC(c2noc3cc(F)ccc23)CC1 | log10 of ED50 | 1.20 |
| Cc1nc2scc(-c3ccc4c(c3)OCO4)n2c(=O)c1CCN1CCC(c2noc3cc(F)ccc23)CC1 | log10 of ED50 | 1.30 |

====

// each record: one item and its IC50 for 5HT2 receptors (Rattus norvegicus, UniProt P14842)

| compound | IC50 (nM) |
| --- | --- |
| Cc1nc2scc(-c3ccccc3)n2c(=O)c1CCN1CCC(c2noc3cc(F)ccc23)CC1 [Example 15] | 3.94 |
| COc1ccc(-c2csc3nc(C)c(CCN4CCC(c5noc6cc(F)ccc56)CC4)c(=O)n23)cc1 [Example 16] | 8.32 |
| COc1ccc(-c2csc3nc(C)c(CCN4CCC(C(=O)c5ccc(F)cc5)CC4)c(=O)n23)cc1 [Example 28] | 8.26 |
| Cc1ccc(-c2csc3nc(C)c(CCN4CCC(c5noc6cc(F)ccc56)CC4)c(=O)n23)cc1 [Example 17] | 14.9 |
| Cc1nc2scc(-c3cccc(C(F)(F)F)c3)n2c(=O)c1CCN1CCC(c2noc3cc(F)ccc23)CC1 [Example 25] | 83.3 |
| Cc1nc2scc(-c3ccc(Cl)c(Cl)c3)n2c(=O)c1CCN1CCC(c2noc3cc(F)ccc23)CC1 [Example 20] | 35.2 |
| Cc1nc2scc(-c3ccc(Cl)cc3)n2c(=O)c1CCN1CCC(c2noc3cc(F)ccc23)CC1 [Example 19] | 11.1 |
| Cc1nc2scc(-c3ccc(F)cc3)n2c(=O)c1CCN1CCC(c2noc3cc(F)ccc23)CC1 [Example 14] | 3.18 |
| Cc1nc2scc(-c3ccccc3F)n2c(=O)c1CCN1CCC(c2noc3cc(F)ccc23)CC1 [Example 26] | 3.51 |
| Cc1nc2scc(-c3ccc4c(c3)OCO4)n2c(=O)c1CCN1CCC(c2noc3cc(F)ccc23)CC1 [Example 18] | 7.63 |
| Cc1nc2scc(-c3ccccc3Cl)n2c(=O)c1CCN1CCC(c2noc3cc(F)ccc23)CC1 [Example 24] | 29.5 |
| COc1cccc(-c2csc3nc(C)c(CCN4CCC(c5noc6cc(F)ccc56)CC4)c(=O)n23)c1 [Example 22] | 7.46 |
| Cc1cccc(-c2csc3nc(C)c(CCN4CCC(c5noc6cc(F)ccc56)CC4)c(=O)n23)c1 [Example 23] | 32.1 |
| Cc1nc2scc(-c3cccc(Cl)c3)n2c(=O)c1CCN1CCC(c2noc3cc(F)ccc23)CC1 [Example 21] | 24.5 |
| Cc1nc2scc(-c3ccccc3)n2c(=O)c1CCN1CCC(C(=O)c2ccc(F)cc2)CC1 [Example 27] | 12.5 |
